Tested on: LOC_OS01G13800-cb001
Assay: thermal shift delta Tm vs DMSO control; higher = stronger stabilization (binding);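 also: purified Escherichia coli-expressed rice kinase domain construct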
Conditions: 12.5 µM; protein concentration 2 µM
Counter-ions that a name gives are not always drawn.
Decide by thermal shift delta Tm: equal to or exceeding 0.08 °C means 1, less means 0.

{"COMPOUND": "OCCn1cc(-c2ccc3c(c2)CC/C3=N\\O)c(-c2ccncc2)n1", "LABEL": 1}
{"COMPOUND": "CCS(=O)(=O)Nc1ccc2c(c1)/C(=C(/Nc1ccc(CN3CCCCC3)cc1)c1ccccc1)C(=O)N2", "LABEL": 0}
{"COMPOUND": "Nc1ncnc2c1c(-c1cnc3[nH]ccc3c1)nn2C1CCCC1", "LABEL": 1}
{"COMPOUND": "N=C(N)NC(=N)NCCc1ccccc1 [Phenformin HCl]", "LABEL": 0}

Can `Cc1cnc(NC(=O)Nc2cc(Br)c(C)cc2OC[C@@H]2CNCCO2)cn1` be said to have thermal shift delta Tm at or above 0.08 °C? 0

Hi, just wondering whether `Oc1c(F)cc(-c2cnccc2-c2ccc(N3CCOCC3)cc2)cc1F` shows thermal shift delta Tm of 0.08 °C or higher. 1

Exam item: decide whether the reported thermal shift delta Tm for `O=c1cc(N2CCOCC2)oc2c(-c3ccc4c(c3)OCCO4)csc12` is at least 0.08 °C. 0

Check this compound for thermal shift delta Tm at or above 0.08 °C: `C=CC(=O)Nc1ccc(CN2C(=O)N(c3cc(OC)cc(OC)c3)Cc3cnc(Nc4ccc(N5CCN(C)CC5)cc4)nc32)cc1` 1

Hello, I need to know if CCC[C@H](NC(=O)/C(C#N)=C/c1cccc(Br)n1)c1ccccc1 [Degrasyn (WP1130)] has measured thermal shift delta Tm not below 0.08 °C. Thanks! 0

# check: thermal shift delta Tm of `Nc1[nH]nc2nnc(-c3c(-c4ccccc4)nn4ccccc34)cc12` is greater than or equal to 0.08 °C 1

Confirm if thermal shift delta Tm reported for the compound `CNc1nc(-c2ccc3c(N)n[nH]c3c2)cc(N2C[C@@H](C(=O)NC3CCCCC3)CC[C@H]2C)n1` is 0.08 °C or above. 1

Check the entry `O=C(Nc1nc2cccc(-c3ccc(CN4CCS(=O)(=O)CC4)cc3)n2n1)C1CC1` : does thermal shift delta Tm equal or exceed 0.08 °C? 1

Quick check: does `CNc1nc(Nc2cnn([C@H]3CCN(C4COC4)C[C@@H]3F)c2Cl)ncc1C(F)(F)F` have thermal shift delta Tm greater than or equal to 0.08 °C? 1

Identify whether the reported thermal shift delta Tm of the following compound is 0.08 °C or greater: `Cn1ncc(Cl)c1-c1cc(C(=O)N[C@H](CN)Cc2cccc(F)c2)sc1Cl` 0

Given the entry `COc1cc2c(N3CCN(C(=O)Nc4ccc(OC(C)C)cc4)CC3)ncnc2cc1OCCCN1CCCCC1` , answer whether its thermal shift delta Tm meets or surpasses 0.08 °C. 1

====

System: LOC_OS01G60330-cb001
Test: thermal shift delta Tm vs DMSO control; higher = stronger stabilization (binding)
Settings: 12.5 µM; protein concentration 2 µM
thermal shift delta Tm for assorted compounds
The reply should be a number in °C, with the unit left off.

{"COMPOUND": "O=C(Nc1ccccc1C(=O)NC1CCCCNC1=O)c1cc2ccccc2s1 (stereo not drawn)", "thermal shift delta Tm, °C": 1.02}
{"COMPOUND": "C[C@@H](NC(=O)c1ncnc(N)c1Cl)c1ncc(C(=O)Nc2cc(C(F)(F)F)c(Cl)cn2)s1", "thermal shift delta Tm, °C": 1.01}
{"COMPOUND": "COc1ccc(-c2ccc3ncc4c(c3c2)n(-c2ccc(N3CCNCC3)c(C(F)(F)F)c2)c(=O)n4C)cn1", "thermal shift delta Tm, °C": 0.66}
{"COMPOUND": "Nc1cc(C(F)(F)F)c(-c2cc(N3CCOCC3)nc(N3CCOCC3)n2)cn1 [Buparlisib (BKM120, NVP-BKM120)]", "thermal shift delta Tm, °C": 0.57}
{"COMPOUND": "CNCc1ccc(-c2cc(-c3nc(-c4ccc(S(=O)(=O)C(C)C)cc4)cnc3N)on2)cc1", "thermal shift delta Tm, °C": 0.91}

Request the reported thermal shift delta Tm associated with N#CC1(c2ccc(NC(=O)c3cccnc3NCc3ccncc3)cc2)CCCC1 [Apatinib] 0.33

Any idea what its thermal shift delta Tm is? The compound is CNC(=O)CN1CCC(Oc2cc3c(Nc4cccc(Cl)c4F)ncnc3cc2OC)CC1 [Sapitinib (AZD8931)] 0.15

Item `CNC(=O)c1ccc(-c2cnc3ncc(Cc4ccc5ncccc5c4)n3n2)cc1F` has what recorded thermal shift delta Tm? -0.8

Recorded thermal shift delta Tm for `CC[C@@H]1C(=O)N(C)c2cnc(Nc3ccc(C(=O)NC4CCN(C)CC4)cc3OC)nc2N1C1CCCC1` , please? 2.55

Item under review: CO[C@H]1C[C@@H]2CC[C@@H](C)[C@@](O)(O2)C(=O)C(=O)N2CCCC[C@H]2C(=O)O[C@H]([C@H](C)C[C@@H]2CC[C@@H](OCCO)[C@H](OC)C2)CC(=O)[C@H](C)/C=C(\C)[C@@H](O)[C@@H](OC)C(=O)[C@H](C)C[C@H](C)/C=C/C=C/C=C/1C [Everolimus (RAD001)] . Reported thermal shift delta Tm? 1.72

May I ask what thermal shift delta Tm has been recorded for `Cc1cc(CS(=O)(=O)c2ccccc2)cc(OCc2ccc(CN3CCC[C@@H]3CO)cc2)c1` ? 0.03

What value of measured thermal shift delta Tm is listed for CCc1nc(C(N)=O)c(Nc2ccc(N3CCC(N4CCN(C)CC4)CC3)c(OC)c2)nc1NC1CCOCC1 [Gilteritinib (ASP2215)] ? 11.5

What does the record list as thermal shift delta Tm for `CS(=O)(=O)c1cccc(CNc2nc(Nc3ccc4c(c3)CCC(=O)N4)ncc2C(F)(F)F)c1` ? 4.37

Query: thermal shift delta Tm; subject: `Nc1nccc(Oc2ccc(NC(=O)c3c[nH]cc(-c4ccc(F)cc4)c3=O)cc2F)c1Cl` 1.42

Query: thermal shift delta Tm; subject: O=C1Nc2ccccc2/C1=C1/Nc2ccccc2C1=O [Indirubin] 1.8

I am curious: what thermal shift delta Tm value has been reported for `C=CC(=O)Nc1cccc(Nc2nc(Nc3ccc(Oc4ccnc(C(=O)NC)c4)cc3)ncc2F)c1` ? 6.9

Which thermal shift delta Tm is reported for this compound? `CN(C)S(=O)(=O)c1ccc2c(c1)/C(=C/c1cc3c([nH]1)CCCC3)C(=O)N2` 10.9

Please report the recorded thermal shift delta Tm for `C=CC(=O)Nc1cccc(Oc2nc(Nc3ccc(N4CCN(C)CC4)cc3OC)ncc2Cl)c1` . 0.75

# get_value(readout='thermal shift delta Tm', item= `Oc1ccc(Nc2nc(-c3ccc(Cl)cc3)cs2)cc1` ) 2.57

Quick check: thermal shift delta Tm of `COc1c(C)c(C(=O)c2ccc(N)c(C(=O)O)c2)n2ccccc12` ? 0.95

Any idea what thermal shift delta Tm was measured for O=C(O)c1ccc2c(c1)nc(Nc1cccc(Cl)c1)c1ccncc12 [Silmitasertib (CX-4945)] ? 4.93

# thermal shift delta Tm lookup, item `NC1(Cc2ccc(Cl)cc2)CCN(c2ncnc3[nH]ccc23)CC1` 2.06

Need thermal shift delta Tm of Cc1cn(-c2cc(NC(=O)c3ccc(C)c(Nc4nccc(-c5cnccn5)n4)c3)cc(C(F)(F)F)c2)cn1 [Radotinib] , thanks. 1.07
